Assayed system: purified recombinant human GAC (GLS1) (Homo sapiens (Human), UniProt O94925)
Sequence (O94925 other isoform, or with tags, fused parts or gaps): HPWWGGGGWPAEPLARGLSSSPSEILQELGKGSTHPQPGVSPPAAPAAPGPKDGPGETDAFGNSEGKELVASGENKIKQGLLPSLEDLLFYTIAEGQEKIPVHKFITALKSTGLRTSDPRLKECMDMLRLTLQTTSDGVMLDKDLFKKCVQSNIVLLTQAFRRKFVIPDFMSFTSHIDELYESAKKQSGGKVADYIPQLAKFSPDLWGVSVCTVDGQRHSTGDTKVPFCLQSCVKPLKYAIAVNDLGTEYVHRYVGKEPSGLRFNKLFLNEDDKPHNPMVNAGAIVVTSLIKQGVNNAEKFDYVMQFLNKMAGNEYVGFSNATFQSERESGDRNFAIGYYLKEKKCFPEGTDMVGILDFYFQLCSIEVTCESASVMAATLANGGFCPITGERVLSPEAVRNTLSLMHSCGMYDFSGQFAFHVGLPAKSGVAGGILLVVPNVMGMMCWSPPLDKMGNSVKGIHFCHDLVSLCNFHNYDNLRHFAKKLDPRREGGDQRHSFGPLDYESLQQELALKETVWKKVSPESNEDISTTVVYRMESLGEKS
Measurement description: GLS1 Enzymatic Activity Assay (dual-coupled enzymatic assay, resorufin/Amplex UltraRed readout)
Recorded endpoint: IC50

Examples with answers:
{"columns": ["Compound", "IC50"],
 "data": [
  ["O=C(NCc1cccc(OC(F)(F)F)c1)c1cn(CCCCn2cc(C(=O)NCc3cnccn3)nn2)nn1 [Example 126]", "0.1 to 0.5 µM"],
  ["O=C(Cc1cc(OC(F)(F)F)ccc1F)Nc1ccc(CCCCc2nnc(C(=O)NCCO)s2)nn1 [Example 597]", "< 0.1 µM"],
  ["O=C(NCc1cncc(C(F)(F)F)c1)c1cn(CC(F)CCc2nnc(C(=O)NCc3cc(C(F)(F)F)ccn3)s2)nn1 (stereo not drawn) [Example 485]", "< 0.1 µM"],
  ["Cc1ccc(CNC(=O)c2cn(CCC(F)Cn3cc(C(=O)NCc4cccc(OC(F)(F)F)c4)nn3)nn2)cn1 (stereo not drawn) [Example 434]", "< 0.1 µM"],
  ["Cc1ccc(CNC(=O)c2cn(CCCCn3cc(NC(=O)CN4CC(F)C4)nn3)nn2)cn1 [Example 348]", "0.5 to 5 µM"],
  ["CNC(=O)c1cn(CC(F)CCc2nnc(NC(=O)Cc3cc(OC(F)(F)F)ccc3F)s2)nn1 (stereo not drawn) [Example 518]", "< 0.1 µM"],
  ["CNC(=O)c1cn(CCCCc2ccc(NC(=O)Cc3cccc(OCCOC)c3)nn2)nn1 [Example 173]", "0.1 to 0.5 µM"],
  ["O=C(Cc1cccc(OC(F)(F)F)c1)Nc1cn(CC(F)CCn2cc(C(=O)NCc3cccc(OC(F)(F)F)c3)nn2)nn1 (stereo not drawn) [Example 339]", "< 0.1 µM"]
]}

Exam item: purified recombinant human GAC (GLS1) (Homo sapiens (Human), UniProt O94925) / IC50 / COCCNC(=O)c1nnc(CCCCc2ccc(NC(=O)Cc3cccc(OC(F)(F)F)c3)nn2)s1 [Example 6] : value?
Marked response: < 0.1 µM

Exam item: purified recombinant human GAC (GLS1) (Homo sapiens (Human), UniProt O94925) / IC50 / O=C(NCc1cc(C(F)(F)F)ccn1)c1cn(CC(F)CCc2nnc(C(=O)NCc3ccc(C(F)(F)F)cn3)s2)nn1 (stereo not drawn) [Example 489] : value?
Marked response: < 0.1 µM

Exam item: purified recombinant human GAC (GLS1) (Homo sapiens (Human), UniProt O94925) / IC50 / Cc1ccc(CNC(=O)c2cn(CCCCn3cc(NC(=O)CC4CCCCC4)nn3)nn2)cn1 [Example 318] : value?
Marked response: < 0.1 µM

Exam item: purified recombinant human GAC (GLS1) (Homo sapiens (Human), UniProt O94925) / IC50 / O=C(Cc1cccc(OC(F)(F)F)c1)Nc1cn(CC(F)CCn2cc(C(=O)NCc3cc(C(F)(F)F)ccn3)nn2)nn1 (stereo not drawn) [Example 394] : value?
Marked response: < 0.1 µM

###

Assayed system: purified recombinant human GAC (GLS1) (Homo sapiens (Human), UniProt O94925)
Measurement description: GLS1 Enzymatic Activity Assay (dual-coupled enzymatic assay, resorufin/Amplex UltraRed readout)
Recorded endpoint: IC50

{"columns": ["Molecule", "IC50"],
 "data": [
  ["O=C(NCc1cccc(OC(F)(F)F)c1)c1cn(CC(F)CCc2nnc(C(=O)NCc3cncc(C(F)(F)F)c3)s2)nn1 (centres unmarked)", "< 0.1 µM"]
]}

Exam item: Value lookup for IC50; key = `O=C(CN1CCC(F)(F)C1)Nc1cn(CCCCn2cc(C(=O)NCc3cccc(OC(F)(F)F)c3)nn2)nn1`
Marked response: < 0.1 µM

Exam item: Value lookup for IC50; key = `CNC(=O)c1cn(CCCCc2nnc(NC(=O)Cc3cccc(OC(F)(F)F)c3)s2)nn1`
Marked response: < 0.1 µM

Exam item: Value lookup for IC50; key = CNC(=O)c1cn(CC(F)CCc2nnc(C(=O)NCc3cncc(C(F)(F)F)c3)s2)nn1 (centres unmarked)
Marked response: 0.1 to 0.5 µM

Exam item: Value lookup for IC50; key = `O=C(NCc1cc(C(F)(F)F)ccn1)c1cn(CCCCn2cc(C(=O)N[C@@H](CO)c3ccccc3)nn2)nn1`
Marked response: 0.5 to 5 µM

###

Assayed system: purified recombinant human GAC (GLS1) (Homo sapiens (Human), UniProt O94925)
Measurement description: GLS1 Enzymatic Activity Assay (dual-coupled enzymatic assay, resorufin/Amplex UltraRed readout)
Recorded endpoint: IC50

{"columns": ["Compound", "Assayed system", "Readout value"],
 "data": [
  ["CNC(=O)c1cn(C[C@H](F)CCc2ccc(NC(=O)Cc3cc(OC4CC(OCC(F)(F)F)C4)ccn3)nn2)nn1 (stereo partly shown) [Example 269]", "purified recombinant human GAC (GLS1) (Homo sapiens (Human), UniProt O94925)", "< 100 nM"],
  ["O=C(CN1CC(F)(F)C1)Nc1cn(CC(F)CCn2cc(C(=O)NCc3cccc(OC(F)(F)F)c3)nn2)nn1 (stereo not shown) [Example 391]", "purified recombinant human GAC (GLS1) (Homo sapiens (Human), UniProt O94925)", "< 100 nM"],
  ["O=C(NCc1ccc(C(F)(F)F)cn1)c1cn(CCC(F)Cn2cc(C(=O)NCc3cccc(OC(F)(F)F)c3)nn2)nn1 (stereo not shown) [Example 433]", "purified recombinant human GAC (GLS1) (Homo sapiens (Human), UniProt O94925)", "< 100 nM"]
]}

Now examine the next entry.
Exam item: Value lookup for IC50; key = O=C(Cc1cccnc1)Nc1cn(CCCCn2cc(C(=O)NCC3CCCC3)nn2)nn1 [Example 290]
Marked response: 500 to 5000 nM

###

Assayed system: purified recombinant human GAC (GLS1) (Homo sapiens (Human), UniProt O94925)
Measurement description: GLS1 Enzymatic Activity Assay (dual-coupled enzymatic assay, resorufin/Amplex UltraRed readout);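 further: glutamate from GAC coupled via glutamate oxidase and peroxidase to resorufin, read as fluorescence (ex 530, em 590 nm) kinetically or at 20 min, four-parameter logistic IC50 fit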
Recorded endpoint: IC50

Examples with answers:
{"columns": ["Compound", "Assayed system", "IC50"],
 "data": [
  ["NC(=O)c1nnc(CCC(F)Cn2cc(C(=O)NCc3cccc(OC(F)(F)F)c3)nn2)s1 (stereo not drawn)", "purified recombinant human GAC (GLS1) (Homo sapiens (Human), UniProt O94925)", "100 to 500 nM"],
  ["O=C(Cc1cc(OC(F)(F)F)ccc1F)Nc1cn(CCCCn2cc(C(=O)NCc3cc(C(F)(F)F)ccn3)nn2)nn1", "purified recombinant human GAC (GLS1) (Homo sapiens (Human), UniProt O94925)", "< 100 nM"],
  ["CNC(=O)c1cn(CCC(F)Cn2cc(C(=O)NCc3cccc(C(=O)OC)c3)nn2)nn1 (stereo not drawn)", "purified recombinant human GAC (GLS1) (Homo sapiens (Human), UniProt O94925)", "100 to 500 nM"],
  ["CNC(=O)c1cn(CCC(F)Cn2cc(C(=O)NCc3cc(OC(F)(F)F)ccc3F)nn2)nn1 (stereo not drawn)", "purified recombinant human GAC (GLS1) (Homo sapiens (Human), UniProt O94925)", "< 100 nM"],
  ["O=C(CN1CC(F)C1)Nc1cn(CC(F)CCn2cc(C(=O)NCc3cccc(OC(F)(F)F)c3)nn2)nn1 (stereo not drawn)", "purified recombinant human GAC (GLS1) (Homo sapiens (Human), UniProt O94925)", "< 100 nM"],
  ["CC(C)(C)OC(=O)N1CCC(Cn2cc(CCCCn3cc(C(=O)NCc4cccc(OC(F)(F)F)c4)nn3)nn2)CC1 [Example 53]", "purified recombinant human GAC (GLS1) (Homo sapiens (Human), UniProt O94925)", "500 to 5000 nM"]
]}

Exam item: Value lookup for IC50; key = CNC(=O)c1cn(CC(F)CCc2ccc(NC(=O)Cc3cc(C(F)(F)F)cc(C4CC4)n3)nn2)nn1 (stereo not drawn)
Marked response: < 100 nM

Exam item: Value lookup for IC50; key = `O=C(Cc1cccc(OC(F)(F)F)c1)Nc1ccc(CCCCc2nnc(C(=O)NCC3COC3)s2)nn1`
Marked response: < 100 nM

Exam item: Value lookup for IC50; key = `O=C(Cc1cc(OC(F)(F)F)ccc1F)Nc1cn(CCCCn2cc(C(=O)NCc3cc(Cl)ccc3F)nn2)nn1`
Marked response: < 100 nM

###

Assayed system: purified recombinant human GAC (GLS1) (Homo sapiens (Human))
Measurement description: GLS1 Enzymatic Activity Assay (dual-coupled enzymatic assay, resorufin/Amplex UltraRed readout)
Recorded endpoint: IC50

Examples with answers:
{"columns": ["Molecule", "Assayed system", "IC50"],
 "data": [
  ["Cc1ccc(CNC(=O)c2cn(CCCCc3nnc(C(=O)NCC4CC4)s3)nn2)cn1 [Example 63]", "purified recombinant human GAC (GLS1) (Homo sapiens (Human))", "100 to 500 nM"],
  ["CNC(=O)c1cn(CCC(F)Cn2cc(C(=O)NCc3cccc(S(C)(=O)=O)c3)nn2)nn1 (stereo not shown) [Example 183]", "purified recombinant human GAC (GLS1) (Homo sapiens (Human))", "100 to 500 nM"],
  ["O=C(CN1CCC(F)(F)C1)Nc1cn(CCCCn2cc(C(=O)NCc3cc(OC(F)(F)F)ccc3F)nn2)nn1 [Example 356]", "purified recombinant human GAC (GLS1) (Homo sapiens (Human))", "< 100 nM"]
]}

Exam item: Value lookup for IC50; key = CNC(=O)c1cn(CCCCc2ccc(NC(=O)Cc3cccc(Br)c3)nn2)nn1 [Example 542]
Marked response: < 100 nM

Exam item: Value lookup for IC50; key = O=C(Cc1ccccc1)Nc1nnc(CCCCn2cc(C(=O)NCCc3ccccc3)nn2)s1 [Example 13]
Marked response: < 100 nM

Exam item: Value lookup for IC50; key = COCCNC(=O)c1nnc(CCCCn2cc(C(=O)NCc3cccc(C(F)(F)F)c3)nn2)s1 [Example 7]
Marked response: 100 to 500 nM

Exam item: Value lookup for IC50; key = O=C(Cc1cccc(OC(F)(F)F)c1)Nc1nnc(CCC(F)Cn2cc(C(=O)NCc3cccc(C(F)(F)F)n3)nn2)s1 (stereo not shown) [Example 494]
Marked response: < 100 nM

Exam item: Value lookup for IC50; key = O=C(NCc1ncccc1F)c1cn(CCC(F)Cn2cc(C(=O)NCc3cc(OC(F)(F)F)ccc3F)nn2)nn1 (stereo not shown) [Example 444]
Marked response: < 100 nM

Exam item: Value lookup for IC50; key = Cc1ccc(CNC(=O)c2cn(CCCCn3cc(NC(=O)Cc4ccc(C)nc4)nn3)nn2)cn1 [Example 316]
Marked response: < 100 nM

Exam item: Value lookup for IC50; key = C[C@H](NC(=O)c1cn(CCC(F)Cn2cc(C(=O)NCc3cc(C(F)(F)F)ccn3)nn2)nn1)c1ccccc1 (stereo partly shown) [Example 458]
Marked response: 100 to 500 nM

Exam item: Value lookup for IC50; key = O=C(NCCc1ccccc1)c1nnc(CCCCc2ccc(NC(=O)[C@@H](O)c3ccccc3)nn2)s1 [Example 25]
Marked response: < 100 nM

Exam item: Value lookup for IC50; key = Cc1ccc(CNC(=O)c2cn(CCC(F)Cn3cc(NC(=O)Cc4cccc(OC(F)(F)F)c4)nn3)nn2)cn1 (stereo not shown) [Example 328]
Marked response: < 100 nM

Exam item: Value lookup for IC50; key = O=C(Cc1cc(OC(F)(F)F)ccc1F)Nc1cn(CCC(F)Cn2cc(C(=O)NCc3ncccc3F)nn2)nn1 (stereo not shown) [Example 417]
Marked response: < 100 nM
